Test: NCI Yeast Anticancer Drug Screen. Data for the sgs1 mgt1 strain (AID 161);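 further: 0% = growth of cultures given vehicle only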
Conditions: S. cerevisiae sgs1 mgt1 strain, at 50.0 µM
Protocol: Growth inhibition of yeast strains with defined genetic alterations is measured as a screen for potential anti-cancer activity. Selected strains with alterations in DNA damage repair or cell cycle control were exposed to compounds and growth inhibition was measured relative to vehicle treated controls. The strain used in this assay is sgs1 mgt1
Compounds without any hit were thinned out: in the full panel of roughly 79,000, 15% have a hit. Active and inactive are the calls of the source. No stated cut-off is given here; in the data, active means growth inhibition above about 70%; inactive means the rest.
API: response.call in YES = active, NO = inactive

Worked cases, answers included:
molecule: CCOC(=O)/C(=C/c1ccc(Cl)cc1)N(CC)CC
class-label: NO

molecule: c1ccc2c3[nH]c(c2c1)=Nc1ccc(cc1)-c1nc2ccc(cc2o1)N=c1[nH]c(c2ccccc12)=Nc1ccc2nc(oc2c1)-c1ccc(cc1)N=3
class-label: YES

molecule: O=C1c2ccccc2C(=O)c2c1ccc(C(=O)O)c2-c1ccc2ccccc2c1
class-label: YES

molecule: O=C1CCC(Cc2ccc(Cl)cc2Cl)C(=O)N1 (stereo not given)
class-label: YES

Pending molecule:
Please let me know the test result on file for Cc1cc2c(c([N+](=O)[O-])c1C)C(=O)C(Br)=C(N)C2=O . YES

###

Assay: NCI Yeast Anticancer Drug Screen. Data for the mlh1 rad18 strain (AID 175)
Conditions: S. cerevisiae mlh1 rad18 strain growth inhibition; at 50.0 µM (retest, dose inferred, filed as 5.0); hits give high values
About 79,000 compounds went through this panel and 15% of them were active in at least one assay; those are over-represented in the sample as a whole.
Decide by growth inhibition: equal to or exceeding 50% means 1, less means 0.

compound: N#CC1CCC(c2ccccc2)(c2ccccc2)C1=O (centres undefined)
class-label: 1
--
compound: COc1ccc(C(=O)Nc2ccc(Cl)cc2)cc1
class-label: 0
--
compound: O=C1C=C(Cl)C(=O)C2=C1CCCC2
class-label: 1
--
compound: CC(C)N(CCOc1ccc(/C=C/c2ccccc2)cc1)C(C)C
class-label: 0
--
compound: O=C(NCCCCCCNC(=O)n1cc(F)c(=O)[nH]c1=O)NC1C(O)OC(CO)C(O)C1O (centres undefined)
class-label: 1

Check if growth inhibition >= 50% (inclusive). Item: CCCCCCCCCCC(=O)CC(=O)c1c(O)cccc1O 0

Hello, I need to know if C[C@H](CCC1=NCCN1)[C@H]1CC[C@H]2[C@@H]3CC[C@@H]4C[C@H](O)CC[C@]4(C)[C@H]3C[C@H](O)[C@]12C has measured growth inhibition not below 50%. Thanks! 1

# check: growth inhibition of Cc1ccc2nc(-c3ccc(N)cc3)sc2c1 is greater than or equal to 50% 0

Confirm if growth inhibition reported for the compound C(=[CH]/[Sn]([c]1ccccc1)([c]1ccccc1)[c]1ccccc1)/c1ccccc1 is 50% or above. 1

Has NC1NCCC(=O)N1CCc1c[nH]c2ccccc12 (centres undefined) a recorded growth inhibition greater than or equal to 50%? 1

Exam item: decide whether the reported growth inhibition for O=S(=O)(CCNCCCCC1CCCCC1)SCCNCCCCC1CCCCC1 is at least 50%. 1

Exam item: decide whether the reported growth inhibition for O=C(c1ccc(Cl)cc1)C1N=NCC1c1ccccc1 (centres undefined) is at least 50%. 1

Does growth inhibition meet or surpass 50% for CS(=O)(=O)Nc1ccc(Nc2c3ccccc3nc3ccccc23)cc1 ? 0

Decide: is the reported value of growth inhibition for O=C(O)CCC(=O)NNc1ccccc1 equal to or greater than 50%? 1

Record NS(=O)(=O)c1ccc(-n2cccc2)cc1 ; criterion: growth inhibition no lower than 50%. Met? 0

Hi, just wondering whether O=C1C(Cl)=C(N2C(=O)CCC2=O)C(=O)c2ccccc21 shows growth inhibition of 50% or higher. 1

In plain terms: is recorded growth inhibition at least 50% for O=[N+]([O-])c1cc(C(F)(F)F)cc([N+](=O)[O-])c1N1CCCC(n2cccc2)C1 (centres undefined) ? 0

Assess whether reported growth inhibition for COc1ccc(N=N/N=c2\sc3cc(Cl)ccc3n2C)cc1 sits at 50% or higher. 1

Given Nc1ccccc1Sc1ccc(C(F)(F)F)cc1[N+](=O)[O-] , state whether its growth inhibition is at least 50%. 0

Is reported growth inhibition greater than or equal to 50% here: COc1cc2c(c(-c3cn(C)c4ccccc34)c1OC)OCO2 0

Could you verify whether the entry O=S(=O)(Nc1ccc(Cl)cc1)c1ccccc1 shows growth inhibition of no less than 50%? 1

growth inhibition >= 50% for CC(=O)O/C=C1\c2ccccc2CCC1c1ccc2ccccc2c1 (centres undefined) ? 0

Entry CCOC(=O)C[P+](c1ccc(C)cc1)(c1ccc(C)cc1)c1ccc(C)cc1 : is its growth inhibition no less than 50%? 1

Is growth inhibition at least 50%? Consider CN=C(N)NN=C(c1ccc(Cl)cc1)c1ccc(Cl)cc1 1

Determine whether measured growth inhibition meets or exceeds 50% for Cc1c(N=Nc2ccc(Br)cc2)c(-c2ccccc2)nn1C(=S)S 0

###

Assay: NCI Yeast Anticancer Drug Screen. Data for the rad50 strain (AID 155);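 further: 0% = growth of vehicle-only cultures of the same strain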
Settings: S. cerevisiae rad50 strain growth inhibition; at 50.0 µM (retest, dose inferred, filed as 5.0)
Method: Growth inhibition of yeast strains with defined genetic alterations is measured as a screen for potential anti-cancer activity. Selected strains with alterations in DNA damage repair or cell cycle control were exposed to compounds and growth inhibition was measured relative to vehicle treated controls. The strain used in this assay is rad50
The panel holds about 79,000 compounds, 15% with a hit somewhere; the sample as a whole holds those more often. The source made the active and inactive calls. No stated cut-off is given here; in the data, active means growth inhibition above about 70%; inactive means the rest.
Select the correct class. Options are y = active, n = inactive and nothing else.

compound: NC(CCl)=NCC1C2CC3CC(C2)CC1C3 (configuration not stated)
class-label: y

Could you check what this test reported for CN(C)Cc1ccc2[nH]c3c(c2c1)CCCC3 ? y

Test call for this compound, please: CN(C)N=Nc1c(-c2ccccc2)n[nH]c1-c1ccccc1 y

Assay outcome for O=[N+]([O-])c1ncn(C2OC(CO)C(O)C2O)c1S (configuration not stated) : what was it? n

# fetch the recorded call for S=c1sc2ccccc2n1CNc1ccccc1 here n

Record lookup: outcome of this test for CCCC(c1ccc(O)cc1)c1ccc(O)cc1 ? y

###

Assay: NCI Yeast Anticancer Drug Screen. Data for the rad50 strain (AID 155);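 further: 0% = growth of vehicle-only cultures of the same strain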
Settings: S. cerevisiae rad50 strain growth inhibition; at 50.0 µM (retest, dose inferred, filed as 5.0); hits give high values
The panel holds about 79,000 compounds, 15% with a hit somewhere; the sample as a whole holds those more often.
Catalogue of growth inhibition readings, one per entry.
Just the number please, in %, no unit attached.

Write down growth inhibition measured for item CC(=O)Nc1cccc2c1ccc1ccc3ccccc3c12 21

Fill in growth inhibition for record CCCCCCCCCCCCCCCCCCNC(=S)/N=C/c1c(O)cc(C)oc1=O 15

###

Assay: NCI Yeast Anticancer Drug Screen. Data for the rad50 strain (AID 155);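 further: 0% = growth of vehicle-only cultures of the same strain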
Details: S. cerevisiae rad50 strain growth inhibition; at 50.0 µM (retest, dose inferred, filed as 5.0); hits give high values
About 79,000 compounds went through this panel and 15% of them were active in at least one assay; those are over-represented in the sample as a whole.
Decide using growth inhibition: a value greater than or equal to 60% is rule met, a smaller one is rule not met.

molecule: O=C(O)NCc1ccccc1 (tested in a mixture with another compound)
class-label: rule met

molecule: COc1ccc(-c2nc3c(C(=O)NCCN(C)C)cccc3c3ccccc23)cc1
class-label: rule not met

molecule: CC(=O)Oc1c([N+](=O)[O-])cc(-c2ccccc2)cc1[N+](=O)[O-]
class-label: rule met

molecule: COc1cccc(/C=C2\CCCc3ccccc3C2=O)c1
class-label: rule not met

molecule: Cc1ccc(O)c(C(c2cc(C)ccc2O)c2ccccc2Cl)c1
class-label: rule met

Is growth inhibition for O=C(CSc1nnc(Cc2ccccc2)o1)Nc1ccc(Cl)cc1[N+](=O)[O-] at or above 60%? rule not met

###

Assay: NCI Yeast Anticancer Drug Screen. Data for the rad50 strain (AID 155);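 further: 0% = growth of vehicle-only cultures of the same strain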
Settings: S. cerevisiae rad50 strain growth inhibition; at 5.0 µM (retest, dose inferred, filed as 0.5)
Experimental: Growth inhibition of yeast strains with defined genetic alterations is measured as a screen for potential anti-cancer activity. Selected strains with alterations in DNA damage repair or cell cycle control were exposed to compounds and growth inhibition was measured relative to vehicle treated controls. The strain used in this assay is rad50
This is part of a sample that, as a whole, favours compounds with a hit. Of some 79,000 tested, about 15% had one in any assay. Activity calls are given as the source filed them. Cut-off read from the data, not from the text of the source: active = growth inhibition above about 70%; inactive = the rest.
// allowed return values: YES for active, NO for inactive

Solved entries (count: 2):
compound: O=C(CC1Sc2ccccc2NC1=O)Nc1ccc([N+](=O)[O-])cc1[N+](=O)[O-] (stereo not drawn)
class-label: NO

compound: CN(C)CCCN=c1c2ccccc2n(O)c2ccccc12
class-label: NO

So what was the verdict on COc1ccc(/C=C/c2cc(OC)c(OC)c(OC)c2)cc1O[Si](C)(C)C(C)(C)C in this test? NO

Would you mind telling me which call this test gave CCOC(=O)C(C)(C)Oc1ccc2c(=O)cc(-c3ccccc3)oc2c1 ? NO
